Value source: patent US20100197650A1

What MBC was measured for each of the following?
# System: P. aeruginosa
# ASSAY_REMARKS: Susceptibility testing MIC/MBC, broth microdilution (Example 2)
# Assay type: cell-based, Pseudomonas aeruginosa
# ASSAY_SETUP: Pseudomonas aeruginosa, P. aeruginosa isolate no. 1037; read-out: MBC
Answers are plain numbers, in µg/mL.

Known MBC results, listed for orientation:
[ask] Kindly state the measured MBC obtained for `NCC[C@H](O)C(=O)N[C@@H]1C[C@H](N)[C@@H](O[C@H]2O[C@H](CN)[C@@H](O)[C@H](O)[C@H]2O)[C@H](O)[C@H]1O[C@H]1O[C@H](CO)[C@@H](O)[C@H](N)[C@H]1O` with P. aeruginosa.
[reply] 4

[ask] Cool, now `C[C@@H](O)[C@H]1C(=O)N2C(C(=O)O)=C(S[C@@H]3CN[C@H](C(=O)N(C)C)C3)[C@H](C)[C@H]12`
[reply] 1

[ask] One more compound: `C[C@H]1COc2c(N3CCN(C)CC3)c(F)cc3c(=O)c(C(=O)O)cn1c23`
[reply] 0.5

More entries:
[ask] Param readout = MBC; param system = P. aeruginosa; param query = `CCO/N=C(\C(=O)N[C@@H]1C(=O)N2C(C(=O)[O-])=C(Sc3nc(-c4cc[n+](C)cc4)cs3)CS[C@H]12)c1nsc(N)n1` ; response: value
[reply] 16

----------
# Tested on: P. aeruginosa
# ASSAY_REMARKS: Susceptibility testing MIC/MBC, broth microdilution (Example 2)
# Format: cell-based, Pseudomonas aeruginosa
# ASSAY_SETUP: Pseudomonas aeruginosa, P. aeruginosa isolate no. 956; read-out: MBC
Provide the reported MBC of each item.
Numbers only, in µg/mL.

Worked examples, 3 compounds total:
[ask] Lab request: please report MBC under test system P. aeruginosa for C[C@@H](O)[C@H]1C(=O)N2C(C(=O)O)=C(S[C@@H]3CN[C@H](C(=O)N(C)C)C3)[C@H](C)[C@H]12 [Meropenem]
[reply] 2

[ask] Also, C[C@H]1COc2c(N3CCN(C)CC3)c(F)cc3c(=O)c(C(=O)O)cn1c23 [Levofloxacin] please.
[reply] 1

[ask] Can you check CCO/N=C(\C(=O)N[C@@H]1C(=O)N2C(C(=O)[O-])=C(Sc3nc(-c4cc[n+](C)cc4)cs3)CS[C@H]12)c1nsc(N)n1 [Ceftaroline] next?
[reply] 256

Let's switch to this compound now.
[ask] Any idea what MBC came out for NCC[C@H](O)C(=O)N[C@@H]1C[C@H](N)[C@@H](O[C@H]2O[C@H](CN)[C@@H](O)[C@H](O)[C@H]2O)[C@H](O)[C@H]1O[C@H]1O[C@H](CO)[C@@H](O)[C@H](N)[C@H]1O [Amikacin] on P. aeruginosa?
[reply] 64

----------
# Test system: P. aeruginosa
# ASSAY_REMARKS: Susceptibility testing MIC/MBC, broth microdilution (Example 2)
# Type: cell-based, Pseudomonas aeruginosa
# ASSAY_SETUP: Pseudomonas aeruginosa, P. aeruginosa isolate no. 796; read-out: MIC
QUANTITY_MEASURED: MIC (µg/mL)
Give bare numbers, in µg/mL.

// below: answered compounds
[ask] What measured MIC goes with `CCO/N=C(\C(=O)N[C@@H]1C(=O)N2C(C(=O)[O-])=C(Sc3nc(-c4cc[n+](C)cc4)cs3)CS[C@H]12)c1nsc(N)n1` ?
[reply] 16

[ask] Next entry: `C[C@@H](O)[C@H]1C(=O)N2C(C(=O)O)=C(S[C@@H]3CN[C@H](C(=O)N(C)C)C3)[C@H](C)[C@H]12`
[reply] 1

For every item below, please supply its MIC.
1. NCC[C@H](O)C(=O)N[C@@H]1C[C@H](N)[C@@H](O[C@H]2O[C@H](CN)[C@@H](O)[C@H](O)[C@H]2O)[C@H](O)[C@H]1O[C@H]1O[C@H](CO)[C@@H](O)[C@H](N)[C@H]1O
2. C[C@H]1COc2c(N3CCN(C)CC3)c(F)cc3c(=O)c(C(=O)O)cn1c23

[reply]
16
1

----------
# Tested on: HA-MRSA
# ASSAY_REMARKS: Susceptibility testing MIC/MBC, broth microdilution (Example 3)
# Type: cell-based, Staphylococcus aureus
# ASSAY_SETUP: 200 HA-MRSA isolates
# Experimental: Two hundred clinical HA-MRSA isolates, harboring the SCCmecIV type, were evaluated for susceptibility testing. […] Four strains, including 1 hVISA and 1 VISA, characterized by population analysis profile and Macro Etest were selected for time-kill analysis. Trypose soy agar (TSA; Difco, Detroit, Mich.) was used for colony counting. […]
I'd be grateful if you could share measured MBC range for these entries.

Dear colleague, could you please provide MBC range for the compounds listed below?
1. CCO/N=C(\C(=O)N[C@@H]1C(=O)N2C(C(=O)[O-])=C(Sc3nc(-c4cc[n+](C)cc4)cs3)CS[C@H]12)c1nsc(N)n1
2. CCCCCCCCCC(=O)N[C@@H](Cc1c[nH]c2ccccc12)C(=O)N[C@H](CC(N)=O)C(=O)N[C@@H](CC(=O)O)C(=O)N[C@@H]1C(=O)NCC(=O)N[C@@H](CCCN)C(=O)N[C@@H](CC(=O)O)C(=O)N[C@H](C)C(=O)N[C@@H](CC(=O)O)C(=O)NCC(=O)N[C@H](CO)C(=O)N[C@@H]([C@H](C)CC(=O)O)C(=O)N[C@@H](CC(=O)c2ccccc2N)C(=O)O[C@@H]1C
3. CN[C@H](CC(C)C)C(=O)N[C@H]1C(=O)N[C@@H](CC(N)=O)C(=O)N[C@H]2C(=O)N[C@H]3C(=O)N[C@H](C(=O)N[C@H](C(=O)O)c4cc(O)cc(O)c4-c4cc3ccc4O)[C@H](O)c3ccc(c(Cl)c3)Oc3cc2cc(c3O[C@@H]2O[C@H](CO)[C@@H](O)[C@H](O)[C@H]2O[C@H]2C[C@](C)(N)[C@H](O)[C@H](C)O2)Oc2ccc(cc2Cl)[C@H]1O

[reply]
1: 0.5 to 2 µg/mL; 2: 0.125 to 4 µg/mL; 3: 0.25 to 4 µg/mL

[ask] Suppose we examine the compound `CC(=O)NC[C@H]1CN(c2ccc(N3CCOCC3)c(F)c2)C(=O)O1` ; what MBC range value has been reported?
[reply] 0.5 to 64 µg/mL

----------
Assignment: determine reported MIC for the given compounds.
# Tested on: P. aeruginosa
# ASSAY_REMARKS: Susceptibility testing MIC/MBC, broth microdilution (Example 2)
# Format: cell-based, Pseudomonas aeruginosa
# ASSAY_SETUP: Pseudomonas aeruginosa, P. aeruginosa isolate no. 1019; read-out: MIC
Note to self: number, then unit, no commentary.

In the examples that follow, each entry is paired with its recorded MIC.
[ask] Looking for the measured MIC of CCO/N=C(\C(=O)N[C@@H]1C(=O)N2C(C(=O)[O-])=C(Sc3nc(-c4cc[n+](C)cc4)cs3)CS[C@H]12)c1nsc(N)n1 [Ceftaroline] , can you help?
[reply] 32 µg/mL

[ask] Please answer likewise for C[C@@H](O)[C@H]1C(=O)N2C(C(=O)O)=C(S[C@@H]3CN[C@H](C(=O)N(C)C)C3)[C@H](C)[C@H]12 [Meropenem]
[reply] 1 µg/mL

[ask] Also NCC[C@H](O)C(=O)N[C@@H]1C[C@H](N)[C@@H](O[C@H]2O[C@H](CN)[C@@H](O)[C@H](O)[C@H]2O)[C@H](O)[C@H]1O[C@H]1O[C@H](CO)[C@@H](O)[C@H](N)[C@H]1O [Amikacin] , if possible.
[reply] 4 µg/mL

API: the following record is the query input.
[ask] Entry C[C@H]1COc2c(N3CCN(C)CC3)c(F)cc3c(=O)c(C(=O)O)cn1c23 [Levofloxacin] : reported MIC = ?
[reply] 0.5 µg/mL

----------
# Test system: P. aeruginosa
# ASSAY_REMARKS: Susceptibility testing MIC/MBC, broth microdilution (Example 2)
# Assay type: cell-based, Pseudomonas aeruginosa
# ASSAY_SETUP: Pseudomonas aeruginosa, P. aeruginosa isolate no. 1019; read-out: MBC
Hi there, I'd appreciate the recorded MBC for every entry that follows.

As a guide, the following entries are already answered.
[ask] Entry under review: NCC[C@H](O)C(=O)N[C@@H]1C[C@H](N)[C@@H](O[C@H]2O[C@H](CN)[C@@H](O)[C@H](O)[C@H]2O)[C@H](O)[C@H]1O[C@H]1O[C@H](CO)[C@@H](O)[C@H](N)[C@H]1O [Amikacin] . Reported MBC?
[reply] 4 mg/L

[ask] Check C[C@@H](O)[C@H]1C(=O)N2C(C(=O)O)=C(S[C@@H]3CN[C@H](C(=O)N(C)C)C3)[C@H](C)[C@H]12 [Meropenem] too.
[reply] 2 mg/L

[ask] // repeat for C[C@H]1COc2c(N3CCN(C)CC3)c(F)cc3c(=O)c(C(=O)O)cn1c23 [Levofloxacin] and report
[reply] 1 mg/L

New cases:
[ask] MBC for CCO/N=C(\C(=O)N[C@@H]1C(=O)N2C(C(=O)[O-])=C(Sc3nc(-c4cc[n+](C)cc4)cs3)CS[C@H]12)c1nsc(N)n1 [Ceftaroline] ?
[reply] 64 mg/L
